molecular target: DENV NS3h (Dengue virus type 2, UniProt Q91H74); format: biochemical; conditions: read-out: DENV RNA-helicase IC50; DENV NS3h RNA unwinding; 100 nM DENV helicase
Sequence (Q91H74 1646-2093 limits assumed): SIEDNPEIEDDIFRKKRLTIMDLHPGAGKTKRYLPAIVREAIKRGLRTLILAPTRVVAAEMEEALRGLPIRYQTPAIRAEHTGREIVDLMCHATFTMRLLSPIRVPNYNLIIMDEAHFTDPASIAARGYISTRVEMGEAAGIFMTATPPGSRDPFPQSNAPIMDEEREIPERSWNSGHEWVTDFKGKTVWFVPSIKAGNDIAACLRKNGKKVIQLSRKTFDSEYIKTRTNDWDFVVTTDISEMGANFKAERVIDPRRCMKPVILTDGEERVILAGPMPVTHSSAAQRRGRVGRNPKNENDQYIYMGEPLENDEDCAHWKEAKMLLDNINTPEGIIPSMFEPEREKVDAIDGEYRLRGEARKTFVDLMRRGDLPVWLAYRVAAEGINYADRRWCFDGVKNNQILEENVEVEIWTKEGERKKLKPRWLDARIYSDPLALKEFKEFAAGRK
Quick list: IC50 per entry.

Reference set (3 entries):
{"mol": "Cc1ccc2nc(-c3ccc4nc(-c5ccc(NC(=O)c6cccc(Cl)c6)cc5)sc4c3)sc2c1S(=O)(=O)O", "target system": "DENV NS3h (Dengue virus type 2, UniProt Q91H74)", "IC50": "5.1 µM"}
{"mol": "Cc1ccc2nc(-c3ccc4nc(-c5ccc(NC(=O)c6cc(C(F)(F)F)cc(C(F)(F)F)c6)cc5)sc4c3)sc2c1S(=O)(=O)O.N", "target system": "DENV NS3h (Dengue virus type 2, UniProt Q91H74)", "IC50": "7.7 µM"}
{"mol": "Cc1ccc2nc(-c3ccc4nc(-c5ccc(NC(=O)c6ccc(C(C)(C)C)cc6)cc5)sc4c3)sc2c1S(=O)(=O)O", "target system": "DENV NS3h (Dengue virus type 2, UniProt Q91H74)", "IC50": "10 µM"}

Alright, here's another compound for you.
-- ask Supply measured IC50 of Cc1ccc2nc(-c3ccc4nc(-c5ccc(NC(=O)c6ccc(F)cc6)cc5)sc4c3)sc2c1S(=O)(=O)O in your reply.
-- reply 6.6 µM
